# protocol.summary: mn = molality of the nth substance listed, in mol/kg
# condition.summary: 303.15 K; 100 kPa; Liquid; Alternating current cell with electrodes; m1 = 5e-05
Form field: electrical conductivity (one value per entry).
Kindly provide the numeric value in S/m only, without the unit symbol.

The following molecules have reported results that may help.
CCCCCCCCCCCC[N+](CC)(CC)CCCCCCCCCCCC.[Br-] [didodecyldiethylammonium bromide] + O :: 0.0025
CCCCCCCCCCCCCCCC[N+](C)(C)CC[N+](C)(C)CCCCCCCCCCCCCCCC.[Br-].[Br-] + O :: 0.00086
CCCCCCCCCC[N+](CC)(CC)CCCCCCCCCC.[Br-] [didecyldiethylammonium bromide] + O :: 0.00224

Would you kindly look at the next entry?
GET /values?readout=electrical conductivity&item= CCCCCCCCCCCCCCCC[N+](CC)(CC)CCCCCCCCCCCCCCCC.[Br-] [diethyldihexadecylammonium bromide] + O
0.00132

====

# protocol.summary: wn = mass fraction of the nth substance listed
# condition.summary: 290.15 K; 101 kPa; Liquid; Alternating current cell with electrodes; w1 = 0.01
measure: electrical conductivity (S/m)
Express your answer in S/m, writing the number without its unit.

Examples from the recorded data:
CCCCCCCCCCCC[N+](CC)(CC)CCCCCCCCCCCC.[Br-] [didodecyldiethylammonium bromide] + O :: 0.00348
CCCCCCCCCC[N+](CC)(CC)CCCCCCCCCC.[Br-] [didecyldiethylammonium bromide] + O :: 0.028
CCCCCCCCCCCC[N+](C)(C)CC[N+](C)(C)CCCCCCCCCCCC.[Br-].[Br-] [1,2-bis(dimethyldodecylammonium)ethane dibromide] + O :: 0.0204

From here, focus on the item given below.
Would you mind telling me what electrical conductivity value was observed for CCCCCCCCCCCCCCCC[N+](CC)(CC)CCCCCCCCCCCCCCCC.[Br-] [diethyldihexadecylammonium bromide] + O ?
0.00201

====

Form field: Normal melting temperature (one value per entry).
# condition.summary: Crystal; visual observation
Answer format: numeric, °C implied, no suffix.

Observe how each entry below is paired with its result.
CCCCCCCCCCCCCCCC[N+](C)(C)C.[Br-] [N,N,N-trimethyl-1-hexadecanaminium bromide] :: 247.00
CCCCCCCCCCCC[N+](C)(C)CC[N+](C)(C)CCCCCCCCCCCC.[Br-].[Br-] [1,2-bis(dimethyldodecylammonium)ethane dibromide] :: 157.00

Report Normal melting temperature for CCCCCCCCCCCCCCCC[N+](CC)(CC)CCCCCCCCCCCCCCCC.[Br-] [diethyldihexadecylammonium bromide] please.
73.80

Then CCCCCCCCCC[N+](CC)(CC)CCCCCCCCCC.[Br-] [didecyldiethylammonium bromide] ?
45.00

====

Items are presented alongside their recorded electrical conductivity.
# protocol.summary: wn = mass fraction of the nth substance listed
# condition.summary: 286.15 K; 101 kPa; Liquid; Alternating current cell with electrodes; w1 = 0.01
Give the value in S/m but do not write S/m after it.

Would you please look over these solved cases?
CCCCCCCCCCCC[N+](CC)(CC)CCCCCCCCCCCC.[Br-] [didodecyldiethylammonium bromide] + O :: 0.0034
CCCCCCCCCCCCCCCC[N+](CC)(CC)CCCCCCCCCCCCCCCC.[Br-] [diethyldihexadecylammonium bromide] + O :: 0.00198
CCCCCCCCCCCC[N+](C)(C)CC[N+](C)(C)CCCCCCCCCCCC.[Br-].[Br-] [1,2-bis(dimethyldodecylammonium)ethane dibromide] + O :: 0.0199

What value of electrical conductivity has been reported for the following compound? CCCCCCCCCC[N+](CC)(CC)CCCCCCCCCC.[Br-] [didecyldiethylammonium bromide] + O
0.0152

====

# protocol.summary: wn = mass fraction of the nth substance listed
# condition.summary: 289.15 K; 101 kPa; Liquid; Alternating current cell with electrodes; w1 = 0.01
Measured electrical conductivity accompanies every entry in the list below.
Please append the unit to your numeric answer.

Guide cases for electrical conductivity, answers given:
CCCCCCCCCCCCCCCC[N+](CC)(CC)CCCCCCCCCCCCCCCC.[Br-] [diethyldihexadecylammonium bromide] + O :: 0.002 S/m
CCCCCCCCCCCC[N+](CC)(CC)CCCCCCCCCCCC.[Br-] [didodecyldiethylammonium bromide] + O :: 0.00349 S/m
CCCCCCCCCC[N+](CC)(CC)CCCCCCCCCC.[Br-] [didecyldiethylammonium bromide] + O :: 0.0233 S/m

Let us move to another entry and its electrical conductivity.
So what does the record say about electrical conductivity for CCCCCCCCCCCC[N+](C)(C)CC[N+](C)(C)CCCCCCCCCCCC.[Br-].[Br-] [1,2-bis(dimethyldodecylammonium)ethane dibromide] + O ?
0.0203 S/m

====

Catalogue of compounds with associated electrical conductivity
# protocol.summary: mn = molality of the nth substance listed, in mol/kg
# condition.summary: 303.15 K; 100 kPa; Liquid; Alternating current cell with electrodes; m1 = 0.001

CCCCCCCCCC[N+](CC)(CC)CCCCCCCCCC.[Br-] [didecyldiethylammonium bromide] + O :: 0.0092 S/m
CCCCCCCCCCCC[N+](CC)(CC)CCCCCCCCCCCC.[Br-] [didodecyldiethylammonium bromide] + O :: 0.00678 S/m
CCCCCCCCCCCC[N+](C)(C)C.[Br-] [dodecyltrimethylammonium bromide] + O :: 0.014 S/m

Proceeding to the next compound to report its electrical conductivity.
Please report the recorded electrical conductivity for CCCCCCCCCCCCCCCC[N+](C)(C)C.[Br-] [N,N,N-trimethyl-1-hexadecanaminium bromide] + O .
0.011 S/m

====

Measured electrical conductivity, listed per entry for reference.
# protocol.summary: mn = molality of the nth substance listed, in mol/kg
# condition.summary: 303.15 K; 100 kPa; Liquid; Alternating current cell with electrodes; m1 = 6e-05
Value expressed in S/m; do not type the unit.

Worked set:
CCCCCCCCCCCCCCCC[N+](C)(C)CC[N+](C)(C)CCCCCCCCCCCCCCCC.[Br-].[Br-] + O :: 0.00088
CCCCCCCCCCCCCCCC[N+](CC)(CC)CCCCCCCCCCCCCCCC.[Br-] [diethyldihexadecylammonium bromide] + O :: 0.00136
CCCCCCCCCC[N+](CC)(CC)CCCCCCCCCC.[Br-] [didecyldiethylammonium bromide] + O :: 0.00293

As a next step, examine the compound that follows.
# electrical conductivity lookup, item CCCCCCCCCCCC[N+](CC)(CC)CCCCCCCCCCCC.[Br-] [didodecyldiethylammonium bromide] + O
0.0032

====

# protocol.summary: mn = molality of the nth substance listed, in mol/kg
# condition.summary: 303.15 K; 100 kPa; Liquid; Alternating current cell with electrodes; m1 = 4e-05
measure: electrical conductivity (S/m)
Express your answer in S/m, writing the number without its unit.

The following compounds have reported results that may help.
CCCCCCCCCCCCCCCC[N+](CC)(CC)CCCCCCCCCCCCCCCC.[Br-] [diethyldihexadecylammonium bromide] + O :: 0.00124
CCCCCCCCCCCCCCCC[N+](C)(C)CC[N+](C)(C)CCCCCCCCCCCCCCCC.[Br-].[Br-] + O :: 0.00082
CCCCCCCCCCCC[N+](CC)(CC)CCCCCCCCCCCC.[Br-] [didodecyldiethylammonium bromide] + O :: 0.00189

In the following, a different compound is considered.
What value of electrical conductivity has been reported for the following compound? CCCCCCCCCC[N+](CC)(CC)CCCCCCCCCC.[Br-] [didecyldiethylammonium bromide] + O
0.00143

====

Parameter: electrical conductivity. Scope: all listed entries.
# protocol.summary: mn = molality of the nth substance listed, in mol/kg
# condition.summary: 303.15 K; 100 kPa; Liquid; Alternating current cell with electrodes; m1 = 3e-05
All answers are understood in S/m, so give the number only.

CCCCCCCCCCCCCCCC[N+](C)(C)CC[N+](C)(C)CCCCCCCCCCCCCCCC.[Br-].[Br-] + O :: 0.00073

What does the data say about its electrical conductivity? Entry: CCCCCCCCCCCC[N+](CC)(CC)CCCCCCCCCCCC.[Br-] [didodecyldiethylammonium bromide] + O
0.00146

Field entry: CCCCCCCCCCCCCCCC[N+](CC)(CC)CCCCCCCCCCCCCCCC.[Br-] [diethyldihexadecylammonium bromide] + O
0.00114

Would you mind doing CCCCCCCCCC[N+](CC)(CC)CCCCCCCCCC.[Br-] [didecyldiethylammonium bromide] + O as well?
0.00072

====

# protocol.summary: wn = mass fraction of the nth substance listed
# condition.summary: 283.15 K; 101 kPa; Liquid; Alternating current cell with electrodes; w1 = 0.01
measure: electrical conductivity (S/m)
Please respond with the number in S/m and leave the unit unwritten.

Worked examples follow.
CCCCCCCCCCCC[N+](CC)(CC)CCCCCCCCCCCC.[Br-] [didodecyldiethylammonium bromide] + O :: 0.0036
CCCCCCCCCCCCCCCC[N+](CC)(CC)CCCCCCCCCCCCCCCC.[Br-] [diethyldihexadecylammonium bromide] + O :: 0.00195
CCCCCCCCCCCC[N+](C)(C)CC[N+](C)(C)CCCCCCCCCCCC.[Br-].[Br-] [1,2-bis(dimethyldodecylammonium)ethane dibromide] + O :: 0.0198

Consider now this further compound.
Suppose we examine the compound CCCCCCCCCC[N+](CC)(CC)CCCCCCCCCC.[Br-] [didecyldiethylammonium bromide] + O ; what electrical conductivity value has been reported?
0.0132
